- Tested on: Organic anion transporters (OATs)
- protocol_summary: In vivo microdialysis pharmacokinetics of LVFX with OATs inhibitor probenecid
- Parameters: species or system rat
- experimental_setup: rat, intravenous, with Probenecid 50 mg/kg i.p., 30 min before LVFX; blood; PRO group, Probenecid 50 mg/kg i.p. + LVFX 50 mg/kg; mean ± SD, N=5
measurement_kind: Cmax (ng/mL)
Form entry: value (ng/mL) — number only.

[in] Any idea what its Cmax is? The molecule is C[C@H]1COc2c(N3CCN(C)CC3)c(F)cc3c(=O)c(C(=O)O)cn1c23 [LVFX, Levofloxacin]
[out] 17500

====

- assay_system: Breast cancer resistance protein (BCRP) (Rattus norvegicus, UniProt Q80W57)
- Construct: from tissue; host or cells: living rat (blood-brain barrier, choroid plexus)
- Sequence (Q80W57 whole entry): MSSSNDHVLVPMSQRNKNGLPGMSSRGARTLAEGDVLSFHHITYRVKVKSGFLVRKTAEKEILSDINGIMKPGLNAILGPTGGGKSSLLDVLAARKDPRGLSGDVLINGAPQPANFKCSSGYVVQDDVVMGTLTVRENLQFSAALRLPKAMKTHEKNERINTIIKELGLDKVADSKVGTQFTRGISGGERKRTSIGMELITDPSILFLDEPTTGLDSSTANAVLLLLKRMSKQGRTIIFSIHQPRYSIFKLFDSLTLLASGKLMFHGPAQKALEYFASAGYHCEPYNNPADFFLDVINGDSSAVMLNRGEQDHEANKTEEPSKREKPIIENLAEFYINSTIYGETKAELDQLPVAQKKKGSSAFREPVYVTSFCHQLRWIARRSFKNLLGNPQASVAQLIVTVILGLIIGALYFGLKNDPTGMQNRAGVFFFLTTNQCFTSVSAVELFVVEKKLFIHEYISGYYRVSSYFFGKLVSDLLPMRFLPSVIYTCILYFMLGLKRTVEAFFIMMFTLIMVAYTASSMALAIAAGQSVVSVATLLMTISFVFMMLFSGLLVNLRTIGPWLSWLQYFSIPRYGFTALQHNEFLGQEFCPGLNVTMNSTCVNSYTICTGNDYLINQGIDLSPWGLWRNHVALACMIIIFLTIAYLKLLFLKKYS
- protocol_summary: In vivo microdialysis pharmacokinetics of LVFX with BCRP inhibitor Ko143
- experimental_setup: CSF (lateral ventricle microdialysate, unbound), intravenous, with Ko143 15 mg/kg i.p., CSF, Ko143 group, Ko143 15 mg/kg i.p. + LVFX 50 mg/kg, mean ± SD, N=5
measurement_kind: Cmax (ng/mL)
Please respond with the number in ng/mL and leave the unit unwritten.

[in] Given C[C@H]1COc2c(N3CCN(C)CC3)c(F)cc3c(=O)c(C(=O)O)cn1c23 , state its recorded Cmax.
[out] 4260
